Reported % Cell viability by item:
- Test system: U937 cell line
- test_description: MTT assay, toxicity (cell viability), U937
- Format: cell-based
- condition_set: U937, 48 h, 5 μM

Incoming: Sample NC(=O)CN(CCc1ccc(F)cc1)C(=O)C1CC(=O)N(CCc2ccc(Cl)cc2Cl)CC(=O)N1CCC(c1ccccc1)c1ccccc1 (centres unmarked) [I.10] — what was its % Cell viability?
Outgoing: 98%

Consider the record given below.
Incoming: Sample CCCCN(CC(N)=O)C(=O)C1CC(=O)N(CCc2ccc(Cl)cc2Cl)CC(=O)N1CCC(c1ccccc1)c1ccccc1 (centres unmarked) [I.11] — what was its % Cell viability?
Outgoing: 89%

====

Reported % Cell viability by item:
- Tested on: U937 cell line
- test_description: MTT assay, toxicity (cell viability), U937
- Assay type: cell-based
- condition_set: U937, 48 h, 5 μM
Answer format: numeric, % implied, no suffix.

Recorded results for 2 compounds are shown here.
Incoming: Sample COc1ccccc1CCN(CC(N)=O)C(=O)C1CC(=O)N(CCc2ccc(Cl)cc2Cl)CC(=O)N1CCC(c1ccccc1)c1ccccc1 (stereo not drawn) [I.7] — what was its % Cell viability?
Outgoing: 100

Incoming: Similarly, CC(=O)NCCNC(=O)CNC(=O)C1CC(=O)N(CCc2ccc(Cl)cc2Cl)CC(=O)N1CCC(c1ccccc1)c1ccccc1 (stereo not drawn) [I.3] ?
Outgoing: 100

Further cases:
Incoming: Sample NC(=O)CN(CCc1ccc(Cl)cc1)C(=O)C1CC(=O)N(CCc2ccc(Cl)cc2Cl)CC(=O)N1CCC(c1ccccc1)c1ccccc1 (stereo not drawn) [I.8] — what was its % Cell viability?
Outgoing: 98
